Biological target: Zif268 finger 2 variant RGPD finger 2 alpha-helix variant RGPD (full helix only in FIG. 1D) (Mus musculus) (UniProt P08046)
Conditions: [none]; apparent Kd interpolated from microarray signal 0.146
resultType: Kd (nM)
Numbers only, in nM.

Enquiry: Return Kd for the following sequence: TATATAGCGTCTGCGTATATATCAAGTCAATCGGTCC (double strand) [Zif268 site TCT]
Return: 690

----------
Molecular target: Zif268 finger 2 variant KASN finger 2 alpha-helix variant KASN (full helix only in FIG. 1D) (Mus musculus) (UniProt P08046)
Conditions: [none]; apparent Kd interpolated from microarray signal 0.616
resultType: Kd (nM)
One number for each entry, in nM.

Enquiry: Return Kd for the following sequence: TATATAGCGGGTGCGTATATATCAAGTCAATCGGTCC (double strand) [Zif268 site GGT]
Return: 1600
